# Tested on: C-Rel subunit;p50 subunit (Homo sapiens;Homo sapiens, UniProt Q04864;P19838 1-285;7-356)
# Sequence (Q04864 1-285, chain 1 of 2): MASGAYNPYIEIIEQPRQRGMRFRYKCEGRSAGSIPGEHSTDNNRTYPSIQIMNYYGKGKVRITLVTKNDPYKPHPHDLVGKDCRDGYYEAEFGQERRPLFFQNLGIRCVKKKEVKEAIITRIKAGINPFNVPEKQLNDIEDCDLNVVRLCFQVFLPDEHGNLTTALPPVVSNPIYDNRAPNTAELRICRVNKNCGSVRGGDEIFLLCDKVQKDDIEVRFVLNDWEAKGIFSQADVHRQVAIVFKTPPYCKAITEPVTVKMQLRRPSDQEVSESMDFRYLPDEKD
# Sequence (P19838 7-356, chain 2 of 2): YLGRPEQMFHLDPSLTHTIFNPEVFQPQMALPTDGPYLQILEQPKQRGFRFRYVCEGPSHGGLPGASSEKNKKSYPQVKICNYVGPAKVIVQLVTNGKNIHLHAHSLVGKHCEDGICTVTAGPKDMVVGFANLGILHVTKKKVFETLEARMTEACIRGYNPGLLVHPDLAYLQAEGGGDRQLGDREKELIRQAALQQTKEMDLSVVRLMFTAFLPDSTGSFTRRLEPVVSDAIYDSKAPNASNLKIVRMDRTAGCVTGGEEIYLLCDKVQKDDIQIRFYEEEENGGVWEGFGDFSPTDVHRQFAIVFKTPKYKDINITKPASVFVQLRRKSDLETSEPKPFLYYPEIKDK
# Test protocol: protein binding microarray; high values mean tight binding
# Assay context: dsDNA, one strand shown
Hi, to clarify the labels: Condition met covers binding signal from -1 z-score upward, Condition not met covers anything below -1 z-score.

[
  {
    "Monomer sequence": "GAAGGTCTCCT",
    "Group": "Condition not met"
  },
  {
    "Monomer sequence": "AAATGACCCCT",
    "Group": "Condition met"
  },
  {
    "Monomer sequence": "GGGGTAACCCT",
    "Group": "Condition met"
  },
  {
    "Monomer sequence": "AAAGGGTTCCT",
    "Group": "Condition met"
  },
  {
    "Monomer sequence": "CAAAGCGTCCT",
    "Group": "Condition not met"
  },
  {
    "Monomer sequence": "GGATAATCCCC",
    "Group": "Condition met"
  },
  {
    "Monomer sequence": "CGAATACCCCT",
    "Group": "Condition met"
  },
  {
    "Monomer sequence": "CGGGTCGTCCT",
    "Group": "Condition not met"
  },
  {
    "Monomer sequence": "AGAAAATCCCT",
    "Group": "Condition met"
  },
  {
    "Monomer sequence": "GAAGTGCTCCT",
    "Group": "Condition not met"
  },
  {
    "Monomer sequence": "GGGGTCTCCCT",
    "Group": "Condition met"
  },
  {
    "Monomer sequence": "GGGGTACTCCT",
    "Group": "Condition met"
  },
  {
    "Monomer sequence": "GAAGGCATCCT",
    "Group": "Condition not met"
  },
  {
    "Monomer sequence": "AAGATAATCCT",
    "Group": "Condition not met"
  },
  {
    "Monomer sequence": "GAATTCACCCC",
    "Group": "Condition met"
  },
  {
    "Monomer sequence": "AGAGTGTCCCT",
    "Group": "Condition met"
  },
  {
    "Monomer sequence": "GGATAGACCCC",
    "Group": "Condition met"
  },
  {
    "Monomer sequence": "CGGGGCATCCT",
    "Group": "Condition met"
  },
  {
    "Monomer sequence": "AGATATTCCCC",
    "Group": "Condition met"
  },
  {
    "Monomer sequence": "CGAGAATCCCT",
    "Group": "Condition met"
  }
]

The measurements presented in this section are drawn from paper PMC3218832.
